- Target or system: PfRH5 of Plasmodium falciparum strain 7G8 (on live parasites) (Plasmodium falciparum)
- Protocol summary: cell-based or functional assay
I would appreciate it if you labelled entries rule met when Max growth inhibition (%) 7G8 is 60% or higher, otherwise rule not met.

Solved cases below.
>>> assigned_class("H1H29100P (antibody, V domains shown) VH: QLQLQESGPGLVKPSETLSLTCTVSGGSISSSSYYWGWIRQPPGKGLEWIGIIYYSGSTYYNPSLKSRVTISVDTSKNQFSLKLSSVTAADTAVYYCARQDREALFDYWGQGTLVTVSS VL: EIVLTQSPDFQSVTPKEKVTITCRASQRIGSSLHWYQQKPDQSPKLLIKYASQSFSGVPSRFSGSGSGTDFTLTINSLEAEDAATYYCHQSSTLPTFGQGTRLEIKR")
"rule met"
>>> assigned_class("H1H29109P (antibody, V domains shown) VH: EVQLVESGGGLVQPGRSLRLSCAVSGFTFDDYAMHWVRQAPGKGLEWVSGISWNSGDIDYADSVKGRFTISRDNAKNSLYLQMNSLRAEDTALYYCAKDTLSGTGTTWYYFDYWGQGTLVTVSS VL: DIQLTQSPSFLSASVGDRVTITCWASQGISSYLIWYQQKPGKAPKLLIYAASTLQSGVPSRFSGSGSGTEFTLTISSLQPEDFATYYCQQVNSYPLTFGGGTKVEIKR")
"rule not met"
>>> assigned_class("H1H29138P (antibody, V domains shown) VH: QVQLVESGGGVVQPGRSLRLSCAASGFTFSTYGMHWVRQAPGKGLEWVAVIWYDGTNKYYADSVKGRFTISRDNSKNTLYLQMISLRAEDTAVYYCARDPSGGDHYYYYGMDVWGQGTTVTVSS VL: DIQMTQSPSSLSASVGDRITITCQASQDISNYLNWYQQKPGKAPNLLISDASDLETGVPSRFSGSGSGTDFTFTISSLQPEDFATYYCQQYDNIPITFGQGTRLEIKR")
"rule not met"

Inquiry: Confirm if Max growth inhibition (%) 7G8 reported for the binder H1H29125P (antibody, V domains shown) VH: QVQLVESGGGVVQPGRSLRLSCAASGFTFSSYGMHWVRQAPGKGLEWMAVISYDGSNKYYADSVKGRFTISRDNSKNTLFLQMNSLRPEDTAVYYCAQDGSSAIYYFYGMDVWGQGTTVTVSS VL: DIQMTQSPSSLSASIGDRVTITCRASQDINNYLAWFQQKPGKAPKSLIYAASSLQSGVPSKFSGSGSGTDFTLTISSLQPEDFATYYCLQYNSYHPTFGQGTKLEIKR is 60% or above.
Reply text: rule not met

Inquiry: Given H1H29089P (antibody, V domains shown) VH: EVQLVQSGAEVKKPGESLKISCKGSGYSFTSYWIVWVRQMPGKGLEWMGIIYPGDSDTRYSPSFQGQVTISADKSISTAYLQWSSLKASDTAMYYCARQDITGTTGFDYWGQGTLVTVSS VL: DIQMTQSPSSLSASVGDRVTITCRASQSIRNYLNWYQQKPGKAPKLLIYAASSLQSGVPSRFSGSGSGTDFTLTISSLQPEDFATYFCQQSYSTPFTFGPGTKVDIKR , state whether its Max growth inhibition (%) 7G8 is at least 60%.
Reply text: rule met

Inquiry: Could you please find out whether H1H29104P (antibody, V domains shown) VH: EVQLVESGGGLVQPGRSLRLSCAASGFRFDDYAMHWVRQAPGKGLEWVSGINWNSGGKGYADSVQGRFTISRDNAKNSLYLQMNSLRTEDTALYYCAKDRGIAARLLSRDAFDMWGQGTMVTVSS VL: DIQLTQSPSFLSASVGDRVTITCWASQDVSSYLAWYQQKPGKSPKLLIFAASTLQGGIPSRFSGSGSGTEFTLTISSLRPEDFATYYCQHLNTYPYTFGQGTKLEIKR has Max growth inhibition (%) 7G8 that meets 60% or exceeds it?
Reply text: rule not met

Every entry's value here was drawn from patent US20240400663A1.
